Provide the reported AC50 of each item.
Target: Type-1 angiotensin II receptor (Homo sapiens); further: assay procedure not described here
Sequence (P30556 whole entry): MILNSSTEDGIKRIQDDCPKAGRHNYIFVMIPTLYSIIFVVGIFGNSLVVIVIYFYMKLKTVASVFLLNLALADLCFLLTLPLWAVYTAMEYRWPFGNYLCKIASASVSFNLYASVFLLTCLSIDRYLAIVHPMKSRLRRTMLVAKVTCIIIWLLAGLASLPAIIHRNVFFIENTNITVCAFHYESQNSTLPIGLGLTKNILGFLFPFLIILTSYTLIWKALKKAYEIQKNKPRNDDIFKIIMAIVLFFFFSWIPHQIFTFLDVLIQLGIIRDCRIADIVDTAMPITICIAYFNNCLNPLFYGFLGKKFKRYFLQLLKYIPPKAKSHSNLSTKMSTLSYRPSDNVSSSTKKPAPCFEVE

Item: CN1C(=O)C(O)N=C(c2ccccc2Cl)c2cc(Cl)ccc21 (stereo unspecified) | AC50: > 30 µM

Item: O=C(O)/C=C/c1ccc(Cn2ccnc2)cc1 | AC50: > 30 µM

Item: Cc1c(OCC(F)(F)F)ccnc1C[S+]([O-])c1nc2ccccc2[nH]1 (stereo unspecified) | AC50: > 30 µM

Item: C[C@H](CSC(=O)c1ccccc1)C(=O)N1C[C@@H](Sc2ccccc2)C[C@H]1C(=O)O | AC50: > 10 µM

Item: CCCCN1C[C@H](O)[C@@H](O)[C@H](O)[C@H]1CO | AC50: > 30 µM

Item: O=C1Nc2ccc(Cl)cc2[C@@](C#CC2CC2)(C(F)(F)F)O1 | AC50: 13 µM

Item: c1cnc(N2CCN(Cc3ccc4c(c3)OCO4)CC2)nc1 | AC50: > 30 µM

Item: CNC1Cc2ccccc2N(C)c2ccccc21 (stereo unspecified) | AC50: > 30 µM

Item: C#C[C@]1(O)CC[C@H]2[C@@H]3CCc4cc(OC5CCCC5)ccc4[C@H]3CC[C@@]21C | AC50: > 10 µM

Item: COc1ccc(CCNCC(O)COc2cccc(C)c2)cc1OC (stereo unspecified) | AC50: > 10 µM

Item: Fc1ccc(C(c2ccccc2)(c2ccccc2F)n2ccnc2)cc1 (stereo unspecified) | AC50: > 30 µM

Item: NS(=O)(=O)Cc1noc2ccccc12 [ZONISAMIDE] | AC50: > 10 µM

Item: NCC[C@H](O)C(=O)N[C@@H]1C[C@H](N)[C@@H](O[C@H]2O[C@H](CN)[C@@H](O)[C@H](O)[C@H]2O)[C@H](O)[C@H]1O[C@H]1O[C@H](CO)[C@@H](O)[C@H](N)[C@H]1O | AC50: > 10 µM

Item: CN(C)CCC=C1c2ccccc2C=Cc2ccccc21 | AC50: > 30 µM

Item: CCOC(=O)[C@H](CCc1ccccc1)N[C@@H](C)C(=O)N1C(=O)N(C)C[C@H]1C(=O)O | AC50: > 30 µM

Item: O=C(O[C@H]1C[C@H]2CC[C@@H](C1)[N+]21CCCC1)C(O)(c1ccccc1)c1ccccc1 | AC50: > 30 µM

Item: C=CCC1(C(C)CC)C(=O)NC(=O)NC1=O (stereo unspecified) | AC50: > 10 µM

Item: CCCN1C[C@H](CSC)C[C@@H]2c3cccc4[nH]cc(c34)C[C@H]21 [PERGOLIDE] | AC50: > 30 µM

Item: O=C(O)CCCCCCNC1c2ccccc2CCc2ccccc21 | AC50: > 30 µM

Item: Nc1nc(Cl)nc2c1ncn2[C@H]1C[C@H](O)[C@@H](CO)O1 | AC50: > 30 µM

Item: Clc1ccc(CCCOCCCN2CCCCC2)cc1 | AC50: > 30 µM

Item: Cc1cccc(C(C)c2cnc[nH]2)c1C (stereo unspecified) | AC50: > 30 µM

Item: CCCc1nc(C(C)(C)O)c(C(=O)OCc2oc(=O)oc2C)n1Cc1ccc(-c2ccccc2-c2nnn[nH]2)cc1 | AC50: 0.0009 µM

Item: CN1CCN(CC/C=C2/c3ccccc3Sc3ccc(S(=O)(=O)N(C)C)cc32)CC1 | AC50: > 30 µM

Item: CC[C@H]1CN2CCc3cc(OC)c(OC)cc3[C@@H]2C[C@@H]1C[C@H]1NCCc2cc(OC)c(OC)cc21 | AC50: > 30 µM

Item: CN1C(C(=O)Nc2ccccn2)=C(O)c2sc(Cl)cc2S1(=O)=O | AC50: > 30 µM

Item: Brc1c(NC2=NCCN2)ccc2nccnc12 | AC50: > 30 µM

Item: CC(C)C(=O)c1c(C(C)C)nn2ccccc12 | AC50: > 30 µM

Item: CC(C)OC(=O)CCC/C=C\C[C@@H]1[C@@H](CC[C@@H](O)CCc2ccccc2)[C@H](O)C[C@@H]1O | AC50: > 30 µM

Item: CC(=O)OCC(=O)[C@@]12N=C(C)O[C@@H]1C[C@H]1[C@@H]3CCC4=CC(=O)C=C[C@]4(C)[C@H]3[C@@H](O)C[C@@]12C | AC50: > 30 µM

Item: COc1cccc(C2(O)CCCCC2CN(C)C)c1 (stereo unspecified) | AC50: > 30 µM

Item: CN(C)CCC=C1c2ccccc2C(C)(C)c2ccccc21 | AC50: > 30 µM

Item: CCC(C)n1ncn(-c2ccc(N3CCN(c4ccc(OCC5COC(Cn6cncn6)(c6ccc(Cl)cc6Cl)O5)cc4)CC3)cc2)c1=O (stereo unspecified) | AC50: > 30 µM

Item: COc1cc2nc(N3CCN(C(=O)c4ccco4)CC3)nc(N)c2cc1OC | AC50: 7.8 µM

Item: OC(CNCC(O)C1CCc2cc(F)ccc2O1)C1CCc2cc(F)ccc2O1 (stereo unspecified) | AC50: > 30 µM

Item: CN(C)CCC(c1ccc(Cl)cc1)c1ccccn1 (stereo unspecified) | AC50: > 30 µM
